assayProtocol: Tmax in Sprague-Dawley rat at 2 mg/kg, po
Assay type: ADME, organism-based
Parameters: dose 2 mg/kg, route oral
conditionDescription: in vivo

# smilesInput, unitLabel, Tmax
records = [
    ("CNc1ncc2cc(-c3cc(C(=O)Nc4cc(C(F)(F)F)ccc4OC4CCN(C)CC4)ccc3C)ccc2n1", "h", 6),
]

###

studySystem: Mitogen-activated protein kinase 10 (Homo sapiens, UniProt P53779)
Sequence (P53779 whole entry): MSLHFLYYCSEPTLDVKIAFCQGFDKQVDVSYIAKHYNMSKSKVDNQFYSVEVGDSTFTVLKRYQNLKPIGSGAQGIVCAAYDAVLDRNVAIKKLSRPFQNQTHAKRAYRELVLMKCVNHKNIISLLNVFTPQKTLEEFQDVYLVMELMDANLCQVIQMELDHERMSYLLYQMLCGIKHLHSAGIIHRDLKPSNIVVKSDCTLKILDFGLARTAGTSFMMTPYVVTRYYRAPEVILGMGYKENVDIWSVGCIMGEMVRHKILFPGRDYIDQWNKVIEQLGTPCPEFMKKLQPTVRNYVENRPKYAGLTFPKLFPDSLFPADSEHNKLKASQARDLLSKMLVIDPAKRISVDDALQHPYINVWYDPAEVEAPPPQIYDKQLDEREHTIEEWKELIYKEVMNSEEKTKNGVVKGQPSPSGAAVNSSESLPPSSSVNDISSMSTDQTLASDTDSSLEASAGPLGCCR
assayProtocol: Inhibition of JNK3 by HTRF kinase assay
pIC50: −log10 of the molar value.
A collection of molecules and their measured pIC50
measuredProperty: pIC50

# smilesInput, boundSign, numericValue
records = [
    ("CNc1ncc2cc(-c3cc(C(=O)Nc4cc(C(F)(F)F)ccc4OC4CCN(C)CC4)ccc3C)ccc2n1", "<", 5.30),
    ("Cc1ccc(C(=O)Nc2cccc(C(F)(F)F)c2)cc1-c1ccc2nc(NCCN3CCOCC3)ncc2c1", "=", 6.84),
]
